- Assay name: inhibitors of DENV2 cytopathic effect, primary screen, cell-based, plate reader, single concentration (AID 651640);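 further: 0% = median of neutral control wells and 100% = median of positive control wells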
- Settings: DENV2-infected cells, cytopathic effect rescue, at 9.99 µM, active compounds read high
Hit rate of the full screen: of about 350,000 compounds, about 6,000 (1.7%) were called active. About 5% were inconclusive and are not listed. The sample as a whole holds a higher share of actives than the screen did.
CPE inhibition values by entry
Number in %, nothing else.

Before answering, review these 2 worked examples.
O=C(/C=C(O)/C=C/c1ccc(O)cc1)/C=C/c1ccc(O)cc1    61.1
COc1ccccc1-c1cnc2c(c1)C(=O)N([C@H](C)CO)C[C@@H](C)[C@@H](CN(C)CC1CCCC1)O2    23.1

Find the recorded CPE inhibition belonging to COc1ccc(S(=O)(=O)N2C[C@H]3CON(C)[C@H]3C[C@H]2c2cccc(Br)c2)cc1 and report it.
-6.66

Find the recorded CPE inhibition belonging to COC(=O)C[C@@H]1C[C@@H]2c3cc(NC(=O)NC4CCCC4)ccc3O[C@@H]2[C@@H](CO)O1 and report it.
-3.24

Find the recorded CPE inhibition belonging to CC(C)NC(=O)N[C@H]1CC[C@H](CC(=O)NC2Cc3ccccc3C2)O[C@H]1CO and report it.
-2.08

###

- Assay name: inhibitors of DENV2 cytopathic effect, primary screen, cell-based, plate reader, single concentration (AID 651640)
- Settings: DENV2-infected cells, cytopathic effect rescue, at 9.99 µM, active compounds read high
Out of some 350,000 compounds screened, about 6,000 (1.7%) were called active. Inconclusive results (about 5%) are left out. The sample as a whole holds a higher share of actives than the screen did.
Parameter measured: CPE inhibition (%)
Number in %, nothing else.

COC(=O)c1c(-c2ccc(OC)cc2)c2c(c3c4cc(OC)ccc4n(S(=O)(=O)c4ccc(F)cc4)c13)C(=O)N(C)C2    44.7
COc1ccc(-c2sc3ccccc3c2-c2ccc(OCCN3CCOCC3)cc2)cc1    9.44
Cc1ccc(S(=O)(=O)N[C@H]2C=C[C@@H](CC(=O)NCCc3ccncc3)O[C@@H]2CO)cc1    -2.51

Find the recorded CPE inhibition belonging to C/C=C/c1cccc(-c2nc(C(=O)NCCN3CCCCC3)cc3c2[C@@H](CCO)N([S@](=O)C(C)(C)C)C3)c1 and report it.
8.26

Find the recorded CPE inhibition belonging to C[C@H]1CN([C@@H](C)CO)C(=O)Cc2cc(NC(=O)Nc3cccc4ccccc34)ccc2O[C@H]1CN(C)CC1CC1 and report it.
2.69

Find the recorded CPE inhibition belonging to CC(C)CC#Cc1ccc([C@H]2[C@@H](CO)N3C(=O)CN(C(=O)CN4CCOCC4)C[C@H]23)cc1 and report it.
-8.34

Find the recorded CPE inhibition belonging to C[C@H]1CN([C@@H](C)CO)C(=O)Cc2cc(NC(=O)Nc3cccc4ccccc34)ccc2O[C@@H]1CN(C)C and report it.
25.6

Find the recorded CPE inhibition belonging to CO[C@H]1CN(C)C(=O)c2ccc(NS(=O)(=O)c3cn(C)cn3)cc2OC[C@H](C)N(C)C[C@H]1C and report it.
-10.1

Find the recorded CPE inhibition belonging to CCS(=O)(=O)Nc1ccc(C(=O)NCCSc2ccccc2)cc1 and report it.
32

Find the recorded CPE inhibition belonging to CCC(=O)N1C[C@@H](O)COC[C@H]2O[C@H](CC(=O)NCC3CCCCC3)CC[C@@H]21 and report it.
-3.58

###

- Assay name: inhibitors of DENV2 cytopathic effect, primary screen, cell-based, plate reader, single concentration (AID 651640)
- Settings: DENV2-infected cells, cytopathic effect rescue, at 9.99 µM, active compounds read high
The campaign covered roughly 350,000 compounds. About 6,000 (1.7%) were called active. Roughly 5% stayed inconclusive and do not appear here. The sample holds actives, similar compounds and a random draw of the others, so the mix is not that of the screen.
CPE inhibition values by entry

Before answering, review these 2 worked examples.
C[C@@H]1CCCCO[C@@H](CN(C)S(C)(=O)=O)[C@H](C)CN([C@@H](C)CO)C(=O)c2cc(NC(=O)Nc3ccc4c(c3)OCO4)ccc2O1    12.2% (inactive)
Cc1noc(C)c1S(=O)(=O)N(C)C[C@@H]1OCCCC[C@H](C)Oc2ccc(NC(=O)NC3CCCCC3)cc2C(=O)N([C@@H](C)CO)C[C@H]1C    -11.4% (inactive)

// switching to the query compound
Find the recorded CPE inhibition belonging to C[C@@H]1CN([C@H](C)CO)C(=O)c2cccc(NS(=O)(=O)c3ccccc3)c2O[C@@H]1CN(C)Cc1ccc(C(=O)O)cc1 and report it.
-6.23% (inactive)

###

- Assay name: inhibitors of DENV2 cytopathic effect, primary screen, cell-based, plate reader, single concentration (AID 651640);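 further: 0% = median of neutral control wells and 100% = median of positive control wells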
- Settings: DENV2-infected cells, cytopathic effect rescue, at 9.99 µM, active compounds read high
Out of some 350,000 compounds screened, about 6,000 (1.7%) were called active. Roughly 5% stayed inconclusive and do not appear here. What follows is part of a selection rich in actives, with near analogues and random picks from the rest.
Parameter measured: CPE inhibition (%)
Number in %, nothing else.

Before answering, review these 5 worked examples.
COc1ccccc1-c1ccc([C@@H]2[C@@H](CO)N3CCCCN(C(=O)c4ccncc4)C[C@@H]23)cc1    -5.15
COCC(=O)N1CC2(C1)[C@@H](c1ccc(-c3cccc(F)c3)cc1)[C@@H](CO)N2C(=O)COC    -4.52
C[C@@H]1CN([C@H](C)CO)C(=O)c2cc(-c3ccccc3F)cnc2O[C@H]1CN(C)C(=O)CN(C)C    -0.853
C/C=C/c1ccc([C@@H]2[C@H](CO)N(CCC(F)(F)F)C23CN(C(=O)CC)C3)cc1    8.21
CCCC(=O)Nc1ccc2c(c1)C(=O)N(C)[C@H]1CC[C@@H](CC(=O)NCc3ccccc3)O[C@@H]1CO2    -7.15

// switching to the query compound
Find the recorded CPE inhibition belonging to CCC(=O)N1CC2(C1)[C@H](c1ccccc1)[C@@H](CO)N2C(=O)c1ccccc1 and report it.
-0.875

###

- Assay name: inhibitors of DENV2 cytopathic effect, primary screen, cell-based, plate reader, single concentration (AID 651640);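 further: 0% = median of neutral control wells and 100% = median of positive control wells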
- Settings: DENV2-infected cells, cytopathic effect rescue, at 9.99 µM, active compounds read high
About 6,000 (1.7%) of roughly 350,000 compounds were called active. About 5% were inconclusive and are not listed. For the sample, actives were picked, then their nearest neighbours and some compounds at random.
CPE inhibition values by entry
Number in %, nothing else.

Before answering, review these 4 worked examples.
CCN1CCN(C(=O)N(Cc2ccc(Cl)cc2)S(=O)(=O)c2ccc(C)cc2)CC1    -3.82
Cc1ccc(C(=O)N2CCN(S(=O)(=O)N3CCOCC3)CC2)cc1    -4.28
Cc1ccc(S(=O)(=O)N(Cc2cccc([N+](=O)[O-])c2)C(=O)N2CCN(C)CC2)cc1    56.8
COCCn1c(SCC(=O)Nc2ccccc2F)nc2c(c1=O)SCC2    69.8

// switching to the query compound
Find the recorded CPE inhibition belonging to COc1ccc([C@H]2N[C@]3(CCCN(Cc4ccco4)C3=O)[C@H]3C(=O)N(C)C(=O)[C@@H]23)cc1 and report it.
91.3

###

- Assay name: inhibitors of DENV2 cytopathic effect, primary screen, cell-based, plate reader, single concentration (AID 651640);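 further: 0% = median of neutral control wells and 100% = median of positive control wells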
- Settings: DENV2-infected cells, cytopathic effect rescue, at 9.99 µM, active compounds read high
The whole screen tested about 350,000 compounds, of which about 6,000 (1.7%) were called active. Not shown: some 5% with an inconclusive outcome. This excerpt belongs to a sample that is enriched for actives.
CPE inhibition values by entry
Number in %, nothing else.

O=C(c1ccccc1F)N1CC(=O)N2[C@H](CO)[C@H](c3ccc(-c4cccnc4)cc3)[C@H]2C1    8.17
COc1ccccc1CNC(=O)C[C@@H]1C[C@@H]2c3cc(NC(=O)C4CCOCC4)ccc3O[C@@H]2[C@@H](CO)O1    2.24

Find the recorded CPE inhibition belonging to O=C(C[C@H]1CC[C@H]2[C@@H](COC[C@H](O)CN2CCC(F)(F)F)O1)N1CCC(Cc2ccccc2)CC1 and report it.
0.858

Find the recorded CPE inhibition belonging to N[C@@H]1CC[C@H](CCn2cc(C3CC3)nn2)O[C@@H]1CO and report it.
-2.16

Find the recorded CPE inhibition belonging to CO[C@H]1CN(C)C(=O)c2ccc(NC(=O)c3cccc(F)c3)cc2OC[C@H](C)N(CC2CC2)C[C@@H]1C and report it.
-4.07

Find the recorded CPE inhibition belonging to CNC[C@H]1Oc2cc(C#CC(C)(C)O)ccc2S(=O)(=O)N([C@@H](C)CO)C[C@@H]1C and report it.
29.3
